Experiment: Kinetic aqueous solubility of the compound
Type: physicochemical
Conditions: buffer; read-out: Kinetic_solubility
READOUT KIND: solubility kinetic

Please review the following examples before continuing.
CC1=C(S(C)(=O)=O)C(c2ccccc2Cl)N=C(Nc2nc3ccccc3o2)N1 (stereo not given) = < 1 µg/mL
CC1=C(C(=O)NCc2cnn(C)c2)C(c2ccc(C)cc2Cl)N=C(Nc2nc3ncccc3o2)N1 (stereo not given) = > 49 µg/mL
CC1=C(C(=O)Nc2cc(C(=O)O)ccn2)C(c2cccc([N+](=O)[O-])c2Cl)N=C(Nc2nc3ccc(F)cc3o2)N1 (stereo not given) = > 84 µg/mL
CC1=C(C(=O)Nc2cc(C(=O)O)ccn2)C(c2ccc(-c3cnc(C)nc3)cc2Cl)N=C(Nc2nc3ccc(F)cc3o2)N1 (stereo not given) = > 90 µg/mL
CC1=C(C(=O)Nc2cc(C(=O)O)ccn2)C(c2ccc(C)cc2Cl)N=C(Nc2nc3c(o2)CCCC3)N1 (stereo not given) = > 52 µg/mL
CC1=C(C(=O)Nc2cccc(CN)c2)C(c2ccccc2Cl)N=C(Nc2nc3ccccc3o2)N1 (stereo not given) = 37.5 µg/mL

Problem: Which value of solubility kinetic has been reported for "CC1=C(C(=O)NCc2cn(C)cn2)[C@@H](c2ccccc2Cl)N=C(Nc2nc3ccccc3o2)N1" in the records?
Result: 40.5 µg/mL

Problem: Which value of solubility kinetic has been reported for CC1=C(C(=O)Nc2cc(C(=O)O)ccn2)C(c2ccccc2Cl)N=C(Nc2nc3cc(C)ccc3o2)N1 (stereo not given) in the records?
Result: < 1 µg/mL

Problem: Which value of solubility kinetic has been reported for CC1=C(C(=O)NCc2nc3ccccc3n2C)C(c2ccccc2Cl)N=C(Nc2nc3ccccc3o2)N1 (stereo not given) in the records?
Result: < 1 µg/mL

Problem: Which value of solubility kinetic has been reported for COc1cccc2nc(NC3=NC(c4ccccc4Cl)C(C(=O)Nc4cc(C(=O)O)ccn4)=C(C)N3)oc12 (stereo not given) in the records?
Result: 65.7 µg/mL

Problem: Which value of solubility kinetic has been reported for CC1=C(C(=O)Nc2cc(C(=O)O)ccn2)C(c2ccccc2Cl)N=C(Nc2nc3cccc(N)c3o2)N1 (racemic) in the records?
Result: > 76 µg/mL

Problem: Which value of solubility kinetic has been reported for CC1=C(C(=O)Nc2cc(C(=O)O)ccn2)C(c2ccccc2Cl)N=C(Nc2nc3ccccc3o2)N1 (racemic) in the records?
Result: > 74 µg/mL

Problem: Which value of solubility kinetic has been reported for CC1=C(C(=O)Nc2cc(-c3nn[nH]n3)ccn2)C(c2ccccc2Cl)N=C(Nc2nc3ccc(F)cc3o2)N1 (stereo not given) in the records?
Result: 29.9 µg/mL

Problem: Which value of solubility kinetic has been reported for CC1=C(C(=O)Nc2ccccc2)C(c2ccccc2Cl)N=C(Nc2nc3ccccc3o2)N1 (stereo not given) in the records?
Result: < 1 µg/mL

====

Assay: Kinetic aqueous solubility of the compound
Assay type: physicochemical
Details: buffer; read-out: Kinetic_solubility
READOUT KIND: solubility kinetic

Please review the following examples before continuing.
CC1=C(C(=O)Nc2nnc(-c3ccncc3)s2)C(c2ccccc2Cl)N=C(Nc2nc3ccccc3o2)N1 (centres undefined) = < 1 µg/mL
CC1=C(C(=O)Nc2ccc(-n3cccn3)cc2)C(c2ccccc2Cl)N=C(Nc2nc3ccccc3o2)N1 (centres undefined) = < 1 µg/mL
CC1=C(C(=O)Nc2cc(C(=O)O)ccn2)C(c2ccccc2Cl)N=C(Nc2nc3cc(N)ccc3o2)N1 (centres undefined) = > 76 µg/mL

Next item in the queue.
Problem: Which value of solubility kinetic has been reported for CC1=C(C(=O)Nc2ccccc2F)C(c2ccccc2Cl)N=C(Nc2nc3ccccc3o2)N1 (centres undefined) in the records?
Result: < 1 µg/mL
